From: ChEMBL document CHEMBL3433997

# testedSystem: Hexose transporter 1 (Plasmodium falciparum)
# assaySummary: ST_JUDE_LEISH: Cytotoxicity at 2uM final concentration against transgenic Leishmania Mexicana promastigotes LmPfHT that are glucose transport deficient and complemented with the Plasmodium falciparum hexose transporter. Activity is measured by DNA content using SYBR green in vitro
# Format: functional
# key: entry, value: inhibition
Report only the number, with the unit % understood.

Answered examples (8):
Cc1ccnc(NC(c2ccc(Cl)c([N+](=O)[O-])c2)c2ccc3cccnc3c2O)c1 (stereo not given) | -0.87
COc1cc2cc(Cc3cnc(N)nc3N)ccc2c(OC)c1OC | -0.27
Cc1[nH]c(C)c(-c2ccc(OCc3cccc(C(F)(F)F)c3)nc2)c(=O)c1Br | 64.4
CN(CCN)Cc1cccc(-c2cccc(-c3nc4cc(C(F)(F)F)ccc4[nH]3)c2)c1 | 2.47
CCOc1cc(Cc2cnc(N)nc2N)cc(OCC)c1-n1cccc1 | 5.64
Nc1cccc(CNCc2ccc(-c3ccc(-c4nc5cc(F)ccc5[nH]4)s3)cc2)c1 | 0.25
CCc1sc(N2CCN(C)CC2)nc1C(=O)NCCc1ccc(Cl)c(Cl)c1 | 3.9
COc1ccc(NC(=O)[C@H](CC(C)C)Nc2cc(C)nc(NCCc3ccc(F)cc3)n2)cc1 | 4.09

Q: Param item = CCCC(=O)Nc1ccc(OCCCN(Cc2ccccc2C(F)(F)F)c2ccc(C#N)c(C(F)(F)F)c2)cc1 ; retrieve measured inhibition.
Ans: 4.53

---

# testedSystem: Glucose transporter (Leishmania mexicana) (UniProt O61059)
# assaySummary: ST_JUDE_LEISH: Cytotoxicity at 2uM final concentration against transgenic Leishmania Mexicana promastigotes LmGT2 that are glucose transport deficient and complemented with the L. Mexicana glucose transporter 2. Activity is measured by DNA content using SYBR green in vitro
# Assay type: functional
# key: entry, value: inhibition
Report only the number, with the unit % understood.

Q: Param item = CCOc1cc(C(=O)NC2CCN(Cc3ccccc3)CC2)ccc1-c1nc2cc(Cl)ccc2[nH]1 ; retrieve measured inhibition.
Ans: 3.09

Q: What about CN(C)C(S)=NN=Cc1cccc(O)c1O ?
Ans: 4.78

Q: What about COc1ccc2nccc([C@@H](O)CN3CCC(NC(=O)C(=O)c4c[nH]c5c(C)cccc45)CC3)c2c1 ?
Ans: 0.45

Q: What about COc1cc(OCCCCCCON2C(=N)N=C(N)NC2(C)C)cc(OC)c1OC ?
Ans: 6.93

Q: What about CN(C1CCC(NC(=O)/C=C/c2ccccc2)CC1)C1CC2(CCN(C(=O)OC(C)(C)C)CC2)c2ccccc21 (stereo not given) ?
Ans: 6.01

---

# testedSystem: Hexose transporter 1 (Plasmodium falciparum) (UniProt O97467)
# assaySummary: ST_JUDE_LEISH: Cytotoxicity at 2uM final concentration against transgenic Leishmania Mexicana promastigotes LmPfHT that are glucose transport deficient and complemented with the Plasmodium falciparum hexose transporter. Activity is measured by DNA content using SYBR green in vitro
# Format: functional
attributeMeasured: inhibition (%)
Report only the number, with the unit % understood.

Answered examples (5):
OC(CNCc1ccco1)Cn1c2ccc(Br)cc2c2cc(Br)ccc21 (centres undefined) | 3.41
O=C(O[C@H]1CN[C@H](C#Cc2cc3ncnc(Nc4ccc5c(ccn5S(=O)(=O)c5cccs5)c4)c3s2)C1)N1CCOCC1 | 13.6
CC1(C)Cc2c(oc3ncn(CCn4cnc5oc6c(c5c4=N)CC(C)(C)SC6)c(=N)c23)CS1 | 0.58
Cc1c(CNCCCNc2cc(=O)c3ccccc3[nH]2)sc(C(F)=C(F)F)c1Br | 5.03
O=C(NCCCCN1CCN(c2cccc(Cl)c2Cl)CC1)c1ccc2c(c1)CCN(C1CCC1)CC2 | -1.47

Q: Param item = CC(=O)Nc1ccc(C(=O)NC2CCN(c3ccnc4cc(Cl)ccc34)CC2)cc1 ; retrieve measured inhibition.
Ans: 1.09

Q: What about CC(C)Nc1cc(C(=O)N[C@@H](Cc2ccccc2)[C@H](O)CNC2CCOCC2)c(F)c(N2CCCCS2(=O)=O)c1 ?
Ans: 5.16

Q: What about CC(Oc1ccc(Cl)cc1)C(=O)Nc1cc(C(F)(F)F)ccc1N1CCOCC1 (centres undefined) ?
Ans: 10.4

Q: What about C=CCc1cc(Cc2cnc(N)nc2N)c2ccc(C)nc2c1O ?
Ans: 1.88

Q: What about Cc1ccc(NC(=N)Nc2ncccc2OCc2c(F)cccc2Cl)cc1 ?
Ans: 7.97

Q: What about CC1(C)NC(N)=NC(=N)N1OCCCc1cc(Cl)c(Cl)cc1Cl ?
Ans: 2.31

Q: What about Cc1cc(N[C@@H](CC(C)C)C(=O)NCCOc2ccccc2)nc(NCCOc2ccccc2)n1 ?
Ans: 1.16

Q: What about COc1c(C2CCN(CCCCNC(=O)c3cccc(-c4ccc(C(F)(F)F)cc4)c3)CC2)ccc2c1CCCC2 ?
Ans: 1.75
